# TESTED_SYSTEM: human GLP-1R (Homo sapiens, UniProt P43220, G168S)
# Sequence (P43220 24-463 G168S limits assumed): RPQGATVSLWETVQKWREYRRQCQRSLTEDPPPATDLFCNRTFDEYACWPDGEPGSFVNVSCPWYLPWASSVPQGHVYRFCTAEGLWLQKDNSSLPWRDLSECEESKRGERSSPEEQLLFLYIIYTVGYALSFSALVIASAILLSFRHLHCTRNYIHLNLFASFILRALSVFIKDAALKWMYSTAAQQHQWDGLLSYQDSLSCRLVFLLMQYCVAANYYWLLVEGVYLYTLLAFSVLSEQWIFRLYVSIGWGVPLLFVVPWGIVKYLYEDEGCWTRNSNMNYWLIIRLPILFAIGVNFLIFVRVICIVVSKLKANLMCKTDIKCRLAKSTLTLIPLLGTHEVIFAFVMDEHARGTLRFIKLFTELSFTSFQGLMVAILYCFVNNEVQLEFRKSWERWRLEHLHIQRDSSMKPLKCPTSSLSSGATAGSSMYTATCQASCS
# TEST_NAME: CHO GLP-1R Clone H6 - Assay 1 (HTRF cAMP agonist assay)
# Format: cell-based
# MEASUREMENT_CONTEXT: CHO GLP-1R Clone H6; arithmetic mean, relative to saturating GLP-1 (1 μM)
Would you mind telling me the reported Emax of each entry?
Answers are plain numbers, in %.

The cases that follow already have their Emax on record.
>>> print(df.to_string())
                                   molecule                             tested_system  measurement_label  test_result
0  COCCn1c(CN2CCC(c3cccc4c3OC(C)(c3cccnc3)O4)CC2)nc2ccc(C(=O)O)cc21 (centres unmarked)  human GLP-1R (Homo sapiens, UniProt P43220, G168S)               Emax           78
1  CC1(c2ccc(C#N)cc2F)Oc2cccc(C3CCN(Cc4nc5ccc(C(=O)O)cc5n4C[C@@H]4CCO4)CC3)c2O1 (single isomer, unassigned)  human GLP-1R (Homo sapiens, UniProt P43220, G168S)               Emax           92
2  Cn1cnnc1Cn1c(CN2CCC(c3cccc4c3OC(C)(c3ccc(Cl)cc3F)O4)CC2)nc2ccc(C(=O)O)cc21 (centres unmarked)  human GLP-1R (Homo sapiens, UniProt P43220, G168S)               Emax           89
3  COCCn1c(CN2CCC(c3cccc4c3OC(C)(c3ccccc3C)O4)CC2)nc2ccc(C(=O)O)cc21 (centres unmarked)  human GLP-1R (Homo sapiens, UniProt P43220, G168S)               Emax           86
4  COCCn1c(CN2CCC(c3cccc4c3OC(C)(c3ccc(Cl)cc3F)O4)CC2)nc2ccc(C(=O)O)cc21 (centres unmarked)  human GLP-1R (Homo sapiens, UniProt P43220, G168S)               Emax           82
5  C[C@@]1(c2ccc(Cl)cc2F)Oc2cccc(C3CCN(Cc4nc5ccc(C(=O)O)cc5n4C[C@@H]4CCO4)CC3)c2O1  human GLP-1R (Homo sapiens, UniProt P43220, G168S)               Emax           89
6  COCCn1c(CN2CCC(c3cccc4c3OC(C)(c3ccc(Cl)cc3)O4)CC2)nc2ccc(C(=O)O)cc21 (centres unmarked)  human GLP-1R (Homo sapiens, UniProt P43220, G168S)               Emax           85
7  CC(=O)N(C)CCn1c(CN2CCC(c3cccc4c3OC(C)(c3ccc(Cl)cc3F)O4)CC2)nc2ccc(C(=O)O)cc21 (centres unmarked)  human GLP-1R (Homo sapiens, UniProt P43220, G168S)               Emax           88

Give Emax for all molecules that follow.
1. COCCn1c(CN2CCC(c3cccc4c3OC(C)(c3ccccc3OC)O4)CC2)nc2ccc(C(=O)O)cc21 (centres unmarked)
2. COCCn1c(CN2CCC(c3cccc4c3OC(C)(c3ccc(OC)cc3)O4)CC2)nc2ccc(C(=O)O)cc21 (centres unmarked)
3. Cn1c(CN2CCC(c3cccc4c3O[C@@](C)(c3ccc(Cl)cc3F)O4)CC2)nc2ccc(C(=O)O)cc21

Ans.
1. 100
2. 86
3. 95
